- Tested on: human ovarian NR- (wild-type) line SKOV3
- assayNotes: Cytotoxicity in untransfected control cells (NR-), nitroreductase activation test
- Assay type: cell-based
- reportedConditions: SK-OV-3, IC50, unit inferred, read-out: Human ovarian lines NR-
propertyLabel: IC50 (µM)

>>> quantitativereadout("COC(=O)c1cc2c3c(cc(NC(=O)OCc4ccc([N+](=O)[O-])cc4)c2[nH]1)N(C(=O)c1cc2cc(OC)c(OC)c(OC)c2[nH]1)CC3CCl (stereo not shown) [32d]")
1.1
>>> quantitativereadout("COc1cc2cc(C(=O)N3CC(CCl)c4c3cc([N+](=O)[O-])c3ccccc43)[nH]c2c(OC)c1OC (racemic) [14a]")
1.6
>>> quantitativereadout("COc1cccc(/C=C/C(=O)N2CC(CCl)c3c2cc([N+](=O)[O-])c2ccccc32)c1 (stereo not shown) [14l]")
0.13
>>> quantitativereadout("CN(C)CCOc1ccc2[nH]c(C(=O)N3CC(CCl)c4c3cc([N+](=O)[O-])c3ccccc43)cc2c1 (stereo not shown) [14e]")
1

====

- Tested on: human ovarian NR- (wild-type) line SKOV3
- assayNotes: Cytotoxicity in untransfected control cells (NR-), nitroreductase activation test
- Format: cell-based
- reportedConditions: SK-OV-3, IC50, unit inferred, read-out: Human ovarian lines NR-
propertyLabel: IC50 (nM)

>>> quantitativereadout("COc1cc2cc(C(=O)N3CC(COS(C)(=O)=O)c4c3cc([N+](=O)[O-])c3ccccc43)[nH]c2c(OC)c1OC (centres unmarked) [14o]")
410
>>> quantitativereadout("CC(=O)Nc1ccc2[nH]c(C(=O)N3CC(CCl)c4c3cc([N+](=O)[O-])c3ccccc43)cc2c1 (centres unmarked) [14c]")
4300
>>> quantitativereadout("COc1cc2cc(C(=O)N3CC(CCl)c4c3cc(NC(=O)OCc3ccc([N+](=O)[O-])cc3)c3ccccc43)[nH]c2c(OC)c1OC (centres unmarked) [15r]")
62
>>> quantitativereadout("O=C(c1cc2cc([N+](=O)[O-])ccc2[nH]1)N1CC(CCl)c2c1cc([N+](=O)[O-])c1ccccc21 (centres unmarked) [14b]")
400

====

The reader will find reported pIC50 values listed item by item below.
- System: EMT6
- assayNotes: Cytotoxicity (growth inhibition), 4 h drug exposure, methylene blue staining
- Assay type: cell-based
- reportedConditions: Mus musculus; EMT6 rodent line; 4 hours exposure, then three days incubation
pIC50: −log10 of the molar value.
propertyLabel: pIC50

>>> quantitativereadout("CN(C)CCOc1ccc2[nH]c(C(=O)N3CC(CCl)c4c3cc(N)c3ccccc43)cc2c1 (stereo not drawn) [15e]")
9.05
>>> quantitativereadout("CCCC(=O)Nc1cc(/C=C/C(=O)N2CC(CCl)c3c2cc(N)c2ccccc32)n(C)c1 (stereo not drawn) [15i]")
8.23
>>> quantitativereadout("COc1cc2cc(C(=O)N3CC(CCl)c4c3cc(N(C)C)c3ccccc43)[nH]c2c(OC)c1OC (stereo not drawn) [15q]")
8.42
>>> quantitativereadout("COC(=O)c1cc2c3c(cc(N)c2[nH]1)N(C(=O)c1cc2cc(OC)c(OC)c(OC)c2[nH]1)CC3CCl (stereo not drawn) [32a]")
8.25
>>> quantitativereadout("CNc1cc2c(c3cc(C(=O)OC)[nH]c13)C(CCl)CN2C(=O)c1cc2cc(OC)c(OC)c(OC)c2[nH]1 (stereo not drawn) [32b]")
9.10
>>> quantitativereadout("COc1cc2cc(C(=O)N3CC(CCl)c4c3cc(N)c3ccccc43)[nH]c2c(OC)c1OC (stereo not drawn) [15a]")
9.57
>>> quantitativereadout("COc1cc2cc(C(=O)N3CC(COS(C)(=O)=O)c4c3cc(N)c3ccccc43)[nH]c2c(OC)c1OC (stereo not drawn) [15o]")
6.63
>>> quantitativereadout("CNc1cc2c(c3ccccc13)C(CCl)CN2C(=O)c1cc2cc(OC)c(OC)c(OC)c2[nH]1 (stereo not drawn) [15p]")
10.00
>>> quantitativereadout("COc1ccc2[nH]c(C(=O)N3CC(CCl)c4c3cc(N)c3ccccc43)cc2c1 (stereo not drawn) [15d]")
9.05
>>> quantitativereadout("COc1cc2cc(C(=O)N3C[C@@H](CCl)c4c3cc(N)c3ccccc43)[nH]c2c(OC)c1OC [15aS]")
10.00
>>> quantitativereadout("COC(=O)c1cc2c3c(cc(N(C)C)c2[nH]1)N(C(=O)c1cc2cc(OC)c(OC)c(OC)c2[nH]1)CC3CCl (stereo not drawn) [32c]")
8.28
>>> quantitativereadout("COc1cc2cc(C(=O)N3C[C@H](CCl)c4c3cc(N)c3ccccc43)[nH]c2c(OC)c1OC [15aR]")
8.15
>>> quantitativereadout("CC(=O)Nc1ccc2[nH]c(C(=O)N3CC(CCl)c4c3cc(N)c3ccccc43)cc2c1 (stereo not drawn) [15c]")
8.28
>>> quantitativereadout("COc1cccc(/C=C/C(=O)N2CC(CCl)c3c2cc(N)c2ccccc32)c1 (stereo not drawn) [15l]")
9.70
>>> quantitativereadout("Nc1ccc2[nH]c(C(=O)N3CC(CCl)c4c3cc(N)c3ccccc43)cc2c1 (stereo not drawn) [15b]")
9.10

====

- Tested on: human ovarian NR- (wild-type) line SKOV3
- assayNotes: Cytotoxicity in untransfected control cells (NR-), nitroreductase activation test
- Type: cell-based
- reportedConditions: SK-OV-3, IC50, unit inferred, read-out: Human ovarian lines NR-
This section presents compounds with their documented IC50 values.
propertyLabel: IC50 (nM)

>>> quantitativereadout("CCCC(=O)Nc1cc(/C=C/C(=O)N2CC(CCl)c3c2cc([N+](=O)[O-])c2ccccc32)n(C)c1 (stereo not shown) [14i]")
4300
>>> quantitativereadout("COc1ccc2[nH]c(C(=O)N3CC(CCl)c4c3cc([N+](=O)[O-])c3ccccc43)cc2c1 (stereo not shown) [14d]")
580
>>> quantitativereadout("COc1cc2cc(C(=O)N3C[C@@H](CCl)c4c3cc([N+](=O)[O-])c3ccccc43)[nH]c2c(OC)c1OC [14aS]")
400
>>> quantitativereadout("COC(=O)c1cc2c3c(cc([N+](=O)[O-])c2[nH]1)N(C(=O)c1cc2cc(OC)c(OC)c(OC)c2[nH]1)CC3CCl (stereo not shown)")
60
